meta.source: PubChem BioAssay AID652048

# target: D(3) dopamine receptor (Homo sapiens) (UniProt P35462)
# Sequence (P35462 whole entry, looked up): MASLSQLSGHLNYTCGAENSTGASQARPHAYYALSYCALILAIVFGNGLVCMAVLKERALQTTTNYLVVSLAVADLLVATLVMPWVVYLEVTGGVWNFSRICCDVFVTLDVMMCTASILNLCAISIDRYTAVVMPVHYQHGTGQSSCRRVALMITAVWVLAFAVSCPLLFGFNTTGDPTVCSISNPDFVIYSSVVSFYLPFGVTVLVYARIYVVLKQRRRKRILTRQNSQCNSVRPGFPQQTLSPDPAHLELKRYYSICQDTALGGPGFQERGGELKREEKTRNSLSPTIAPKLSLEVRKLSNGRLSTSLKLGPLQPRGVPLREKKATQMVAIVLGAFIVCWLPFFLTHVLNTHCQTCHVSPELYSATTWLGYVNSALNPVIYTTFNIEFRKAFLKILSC
# test: qHTS of D3 Dopamine Receptor Agonist: qHTS
# settings: D3R DiscoveRx beta-arrestin cells, luminescence, 90 min
Among all 410,000 compounds or so, about 2,400 (0.59%) were called active. No stated cut-off is given here; in the data, active means max activation above about 30%; inactive means the rest. The sample as a whole holds a higher share of actives than the screen did.
Give your call using only these classes: active, inactive

Please review the entries below; each comes with its answer.
Cc1ccc(C)c(S(=O)(=O)n2nc(C)c(S(=O)(=O)N3CCC(C)CC3)c2C)c1 inactive
CCc1ccc(S(=O)(=O)n2ccnc2)cc1 inactive
COc1ccc(Cl)cc1NC(=O)Cn1c(=O)c2ccccc2n2nncc12 inactive
Oc1ccc(-c2nc3ccc(Cl)cn3c2Nc2ccc3c(c2)OCO3)cc1 inactive
CCOc1ccccc1N(CC)C(=O)c1cc2ccc3cccnc3c2[nH]1 inactive
CC(C)Oc1ccc(CNC(=O)C2CCN(c3nc4ccccc4n(C)c3=O)CC2)cc1 inactive

[Q] // return assay outcome for "CC(C)(C)C(=O)OCc1nc(-c2ccc(O)c(O)c2)cs1"
[A] active

[Q] // return assay outcome for "COc1ccc(C(=O)COC(=O)c2c(C)noc2C)cc1Cl"
[A] inactive
